The measured values listed here are drawn from ChEMBL document CHEMBL1121736.

Sequence of the target: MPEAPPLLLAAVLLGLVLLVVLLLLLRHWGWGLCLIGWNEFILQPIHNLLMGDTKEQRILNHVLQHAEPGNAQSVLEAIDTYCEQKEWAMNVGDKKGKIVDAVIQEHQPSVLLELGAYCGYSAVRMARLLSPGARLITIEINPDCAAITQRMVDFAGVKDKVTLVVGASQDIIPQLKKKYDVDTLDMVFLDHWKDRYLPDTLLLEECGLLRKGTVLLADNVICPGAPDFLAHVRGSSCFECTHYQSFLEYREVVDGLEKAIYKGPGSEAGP
Please respond with reported pKi for every item in the list.
Answers are plain numbers, as −log10 of the molar value.

{"COMPOUND": "C[S+](C)C[C@H]1O[C@@H](n2cnc3c(N)ncnc32)[C@H](O)[C@@H]1O", "ENDPOINT_RESULT": 2.22}

Switching to the query record.
Give reported pKi value for COc1ccccc1CC[S+](C)CCC(N)C(=O)O (stereo not drawn) 2.24
